test.system: acetylcholinesterase (AChE) (Electrophorus electricus)
Construct: purchased Sigma-Aldrich Co. (St. Louis, MO, USA)
Sequence (O42275 24-633): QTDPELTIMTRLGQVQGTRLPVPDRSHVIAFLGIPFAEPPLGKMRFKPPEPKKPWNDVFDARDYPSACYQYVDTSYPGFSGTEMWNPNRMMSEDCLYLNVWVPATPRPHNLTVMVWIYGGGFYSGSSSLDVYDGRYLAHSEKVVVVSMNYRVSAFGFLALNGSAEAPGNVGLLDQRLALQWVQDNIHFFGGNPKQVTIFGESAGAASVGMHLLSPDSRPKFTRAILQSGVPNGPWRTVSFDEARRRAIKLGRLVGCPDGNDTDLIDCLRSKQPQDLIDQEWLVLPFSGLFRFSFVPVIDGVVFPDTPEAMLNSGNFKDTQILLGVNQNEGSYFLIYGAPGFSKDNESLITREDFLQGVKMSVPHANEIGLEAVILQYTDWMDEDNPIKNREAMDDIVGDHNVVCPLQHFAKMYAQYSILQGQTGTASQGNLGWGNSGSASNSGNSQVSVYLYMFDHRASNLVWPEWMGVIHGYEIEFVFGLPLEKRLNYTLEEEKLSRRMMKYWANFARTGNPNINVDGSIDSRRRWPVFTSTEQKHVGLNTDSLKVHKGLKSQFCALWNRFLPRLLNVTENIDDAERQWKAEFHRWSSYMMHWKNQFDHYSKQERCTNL
assay.notes: biochemical
Assay type: biochemical
setup.conditions: IC50 AChE, extract and fractions; mean ± SD, n = 3
pIC50: −log10 of the molar value.
property.name: pIC50

[[record]]
compound = "COc1ccc2cc3[n+](cc2c1OC)CCc1cc2c(cc1-3)OCO2 [Berberine, berberine, reference compound]"
value_measured = 6.49


----------
test.system: butyrylcholinesterase (BChE) (Equus caballus)
Construct: BChE from equine serum; purchased Sigma-Aldrich Co. (St. Louis, MO, USA); host or cells: equine serum
Sequence (P81908 whole entry): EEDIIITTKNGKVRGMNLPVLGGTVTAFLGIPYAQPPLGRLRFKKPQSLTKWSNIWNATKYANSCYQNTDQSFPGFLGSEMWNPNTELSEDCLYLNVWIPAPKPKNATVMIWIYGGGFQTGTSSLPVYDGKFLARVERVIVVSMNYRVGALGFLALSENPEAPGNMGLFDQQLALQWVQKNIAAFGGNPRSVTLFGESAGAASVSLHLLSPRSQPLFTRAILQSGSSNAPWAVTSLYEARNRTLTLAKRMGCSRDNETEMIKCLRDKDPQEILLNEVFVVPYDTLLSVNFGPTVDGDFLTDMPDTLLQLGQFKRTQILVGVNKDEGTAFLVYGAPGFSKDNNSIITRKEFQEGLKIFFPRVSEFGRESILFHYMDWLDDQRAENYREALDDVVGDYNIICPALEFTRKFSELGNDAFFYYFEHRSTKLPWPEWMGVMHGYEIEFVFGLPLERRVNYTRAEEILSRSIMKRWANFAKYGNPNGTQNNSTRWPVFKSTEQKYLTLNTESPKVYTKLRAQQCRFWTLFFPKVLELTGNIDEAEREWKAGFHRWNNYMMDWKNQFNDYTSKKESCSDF
assay.notes: biochemical
setup.conditions: isolated compounds; mean ± SD, n = 3; read-out: IC50 BChE
property.name: IC50 (µM)

[[record]]
compound = "COC(=O)C1=CO[C@@H](O[C@@H]2O[C@H](CO)[C@@H](O)[C@H](O)[C@H]2O)[C@@H]2C(CO)=C[C@H](OC)[C@H]12"
unit_of_measure = "µM"
value_measured = 32.2

[[record]]
compound = "COC(=O)C1=CO[C@@H](O[C@@H]2O[C@H](CO)[C@@H](O)[C@H](O)[C@H]2O)[C@@H]2C(CO)=C[C@@H](O)[C@H]12 [Compound 8, scandoside methyl ester]"
unit_of_measure = "µM"
value_measured = 16.2

[[record]]
compound = "COc1cc(/C=C/C(=O)OC[C@H]2O[C@@H](O[C@H]3[C@H](Oc4c(-c5ccc(O)c(O)c5)oc5cc(O)cc(O)c5c4=O)O[C@H](CO)[C@@H](O)[C@@H]3O)[C@H](O)[C@@H](O)[C@@H]2O)ccc1O"
unit_of_measure = "µM"
value_measured = 13.8

[[record]]
compound = "COC(=O)C1=CO[C@@H](O[C@@H]2O[C@H](CO)[C@@H](O)[C@H](O)[C@H]2O)[C@@H]2C(CO)=C[C@@H](OC(=O)/C=C/c3ccc(O)c(OC)c3)[C@H]12 [Compound 3, E-6-O-feruloyl scandoside methyl ester]"
unit_of_measure = "µM"
value_measured = 116

[[record]]
compound = "COC(=O)C1=CO[C@@H](O[C@@H]2O[C@H](CO)[C@@H](O)[C@H](O)[C@H]2O)[C@@H]2C(CO)=C[C@@H](OC)[C@H]12 [Compound 7, 6-O-Methylscandoside methyl ester]"
unit_of_measure = "µM"
value_measured = 11.6

[[record]]
compound = "COC(=O)C1=CO[C@@H](O[C@@H]2O[C@H](CO)[C@@H](O)[C@H](O)[C@H]2O)[C@@H]2C(CO)=C[C@H](O)[C@H]12"
unit_of_measure = "µM"
value_measured = 17.6


Sourced from paper PMC7764330
